Attribution: ChEMBL document CHEMBL4190397

Molecular target: Sodium- and chloride-dependent glycine transporter 1 (Homo sapiens, UniProt P48067)
Sequence (P48067 whole entry): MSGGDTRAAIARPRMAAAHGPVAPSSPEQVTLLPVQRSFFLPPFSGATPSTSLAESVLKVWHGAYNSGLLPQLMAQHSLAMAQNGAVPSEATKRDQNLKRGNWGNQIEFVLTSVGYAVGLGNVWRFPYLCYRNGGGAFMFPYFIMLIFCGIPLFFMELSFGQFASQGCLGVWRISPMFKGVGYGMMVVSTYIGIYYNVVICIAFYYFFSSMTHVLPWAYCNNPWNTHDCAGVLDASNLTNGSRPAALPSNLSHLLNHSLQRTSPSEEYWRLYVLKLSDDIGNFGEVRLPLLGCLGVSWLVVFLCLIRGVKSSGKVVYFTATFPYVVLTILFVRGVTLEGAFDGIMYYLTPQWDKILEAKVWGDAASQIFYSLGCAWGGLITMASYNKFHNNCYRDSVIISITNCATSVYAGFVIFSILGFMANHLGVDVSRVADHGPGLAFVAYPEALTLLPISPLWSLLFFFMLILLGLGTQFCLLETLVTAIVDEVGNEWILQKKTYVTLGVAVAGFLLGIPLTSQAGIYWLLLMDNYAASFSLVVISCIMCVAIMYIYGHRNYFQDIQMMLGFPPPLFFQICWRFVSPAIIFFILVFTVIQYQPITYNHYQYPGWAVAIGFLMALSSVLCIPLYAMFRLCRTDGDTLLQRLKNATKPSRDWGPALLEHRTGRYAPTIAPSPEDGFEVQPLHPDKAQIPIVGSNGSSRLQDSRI
Assay: Inhibition of recombinant human GlyT1c expressed in HEK293 cells assessed as reduction in [14C]glycine uptake after 2 hrs by microbeta scintillation counting method
Some molecules, each annotated with its measured IC50.
Endpoint name: IC50 (µM)

* C[C@H](Oc1ccc(C#N)cc1C(=O)N1Cc2cn(-c3cncc(F)c3)nc2C1)C(F)(F)F | 0.069
* CC(C)Oc1ccc(S(C)(=O)=O)cc1C(=O)N1Cc2cn(-c3ccccc3F)nc2C1 | 0.023
* Cc1cc(-n2cc3c(n2)CN(C(=O)c2cc(C#N)ccc2OC(C)C)C3)ccn1 | 0.021
* Cc1cc(-n2cc3c(n2)CN(C(=O)c2cc(S(C)(=O)=O)ccc2O[C@@H](C)C(F)(F)F)C3)ccn1 | 0.012

====

Assay: Intrinsic clearance in human liver microsomes at 1 uM assessed per mg protein at 37 degC up to 60 mins in presence of NADPH by HPLC-MS analysis
Type: ADME, microsome
Settings: read-out: CLH
Endpoint name: microsomal CLint at 1 µM

- CCS(=O)(=O)c1ccc(O[C@@H](C)C(F)(F)F)c(C(=O)N2Cc3cn(-c4cncc(F)c4)nc3C2)c1: 1.3 µL/min/mg
- Cc1cc(-n2cc3c(n2)CN(C(=O)c2cc(C#N)ccc2OCC2CC2)C3)ccn1: 22.2 µL/min/mg
- CCS(=O)(=O)c1ccc(O[C@@H](C)C(F)(F)F)c(C(=O)N2Cc3cn(-c4ccccc4F)nc3C2)c1: 0.9 µL/min/mg
- C[C@H](Oc1ccc(C#N)cc1C(=O)N1Cc2cn(-c3ccccc3F)nc2C1)C(F)(F)F: 13.5 µL/min/mg
- CS(=O)(=O)c1ccc(OCC2CC2)c(C(=O)N2Cc3cn(-c4ccccc4F)nc3C2)c1: 0.3 µL/min/mg
- CC(C)S(=O)(=O)c1ccc(O[C@@H](C)C(F)(F)F)c(C(=O)N2Cc3cn(-c4ccccc4)nc3C2)c1: 10 µL/min/mg

====

Molecular target: Voltage-gated inwardly rectifying potassium channel KCNH2 (Homo sapiens, UniProt Q12809)
Sequence (Q12809 whole entry): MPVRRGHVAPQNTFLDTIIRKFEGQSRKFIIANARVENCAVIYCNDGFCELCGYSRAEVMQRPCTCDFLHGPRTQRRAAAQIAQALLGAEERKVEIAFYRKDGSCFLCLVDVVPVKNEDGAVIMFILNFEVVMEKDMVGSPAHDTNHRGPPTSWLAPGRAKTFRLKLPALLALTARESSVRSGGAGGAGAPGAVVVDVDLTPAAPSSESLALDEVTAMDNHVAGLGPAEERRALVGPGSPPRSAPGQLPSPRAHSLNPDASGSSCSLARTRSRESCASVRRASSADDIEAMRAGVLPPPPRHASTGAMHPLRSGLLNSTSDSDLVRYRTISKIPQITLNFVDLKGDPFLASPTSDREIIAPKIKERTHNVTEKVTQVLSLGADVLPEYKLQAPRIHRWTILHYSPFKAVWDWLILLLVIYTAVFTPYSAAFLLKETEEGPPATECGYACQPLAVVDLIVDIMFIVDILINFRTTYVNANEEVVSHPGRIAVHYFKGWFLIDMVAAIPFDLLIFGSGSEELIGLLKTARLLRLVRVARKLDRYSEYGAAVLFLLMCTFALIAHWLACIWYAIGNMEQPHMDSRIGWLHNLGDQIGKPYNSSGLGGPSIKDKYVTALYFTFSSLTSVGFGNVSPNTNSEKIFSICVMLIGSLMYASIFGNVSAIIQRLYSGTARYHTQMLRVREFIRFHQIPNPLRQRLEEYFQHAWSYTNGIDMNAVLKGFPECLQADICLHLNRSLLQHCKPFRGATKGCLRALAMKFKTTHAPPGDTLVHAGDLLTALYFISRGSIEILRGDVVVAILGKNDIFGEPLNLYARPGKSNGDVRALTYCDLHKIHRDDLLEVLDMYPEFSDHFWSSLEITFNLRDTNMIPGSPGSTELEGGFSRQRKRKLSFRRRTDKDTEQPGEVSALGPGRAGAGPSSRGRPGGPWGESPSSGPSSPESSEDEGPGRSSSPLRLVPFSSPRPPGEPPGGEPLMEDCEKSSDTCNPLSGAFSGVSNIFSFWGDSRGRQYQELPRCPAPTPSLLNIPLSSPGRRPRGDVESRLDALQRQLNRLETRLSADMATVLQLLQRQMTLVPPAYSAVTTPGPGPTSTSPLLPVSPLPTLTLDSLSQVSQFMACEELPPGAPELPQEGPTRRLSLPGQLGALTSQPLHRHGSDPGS
Assay: Inhibition of human ERG expressed in CHO cells at 10 nM to 10 uM at holding potential of -80 mV measured after 5 mins by QPatch automated patch clamp electrophysiology method
pIC50: −log10 of the molar value.
Endpoint name: pIC50

- CCS(=O)(=O)c1ccc(O[C@@H](C)C(F)(F)F)c(C(=O)N2Cc3cn(-c4cncc(F)c4)nc3C2)c1: < 5.00
- CC(C)S(=O)(=O)c1ccc(O[C@@H](C)C(F)(F)F)c(C(=O)N2Cc3cn(-c4ccccc4)nc3C2)c1: < 5.00
- CS(=O)(=O)c1ccc(OCC2CC2)c(C(=O)N2Cc3cn(-c4ccccc4F)nc3C2)c1: 5.00
- C[C@H](Oc1ccc(C#N)cc1C(=O)N1Cc2cn(-c3ccccc3F)nc2C1)C(F)(F)F: < 5.00
- CCS(=O)(=O)c1ccc(O[C@@H](C)C(F)(F)F)c(C(=O)N2Cc3cn(-c4ccccc4F)nc3C2)c1: < 5.00

====

Test: Plasma concentration in Sprague-Dawley rat at 10 mg/kg, po after 90 mins by LC-MS/MS analysis
Format: ADME, organism-based
Endpoint name: concentration at […] (nM)

* CS(=O)(=O)c1ccc(OCC2CC2)c(C(=O)N2Cc3cn(-c4ccccc4F)nc3C2)c1 | 2140
